Record form. Attribute: pre-steady-state target cleavage rate. Fill in for each entry.
test system: MILI (PIWIL2) piRISC loaded with piRNA #1 (26 nt); experiment: pre-steady-state target cleavage rate (min^-1); guide: piRNA #1 5'p-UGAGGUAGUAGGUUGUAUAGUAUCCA; higher = faster piRNA-guided slicing of the target; details: auxiliary factor: 500 nM mouse GTSF1;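 note: 1 nM active piRISC with 0.1 nM target library at 33 °C single turnover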
One number for each entry.

- sequence.record: "GGAGACCUUACUUUAGAACCUACUACCUCA"
  pre-steady-state target cleavage rate: 0.13
- sequence.record: "GGAGAGGAUACUAUUCAACCUACUACGUCA"
  pre-steady-state target cleavage rate: 0.0602
- sequence.record: "GGAGACCUAUGUAUACAACCUACUACCACA"
  pre-steady-state target cleavage rate: 0.0991
- sequence.record: "GGAGACCUAUGUAUACAACCUACUCCCUCA"
  pre-steady-state target cleavage rate: 0.0316
- sequence.record: "GGAGACCAUACAUAUACAACCUACUACCUCA"
  pre-steady-state target cleavage rate: 0.101
- sequence.record: "GGAGACCAAACUAUACAUCCUACUACCUCA"
  pre-steady-state target cleavage rate: 0.168
- sequence.record: "GGAGACCUAUGUUUACAACCUACUACCUGA"
  pre-steady-state target cleavage rate: 0.00584
- sequence.record: "GGAGACCUAUCUAUACUACCAACUACCUCA"
  pre-steady-state target cleavage rate: 0.00495

Working through the 5 sequences below one at a time, give pre-steady-state target cleavage rate for each.
1. GGAGACCUUACUAUACAACCAUCUACCUCA
2. GGAGACCUAACUAUUCAACCUAGUACCUCA
3. GGAGACCUUACCAUACAACCUACUACCUCA
4. GGAGACCUUACUAUACUACCUUCUACCUCA
5. GGAGACCUUACAAUACAAGCUACUACCUCA

Resp:
0.00422
0.0158
0.134
0.0109
0.191

====

tested on: EfPiwi piRISC loaded with L1MC piRNA (26 nt); experiment: pre-steady-state target cleavage rate (min^-1); auxiliary factor: 500 nM Ephydatia muelleri Gtsf1; guide: L1MC piRNA 5'p-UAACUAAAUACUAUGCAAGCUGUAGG; MIWI and MILI are mouse PIWI proteins and EfPiwi is from a freshwater sponge; tags in brackets are library labels; higher = faster piRNA-guided slicing of the target
Record form. Attribute: pre-steady-state target cleavage rate. Fill in for each entry.
Numbers only.

Examples with their reported pre-steady-state target cleavage rate follow.
- sequence.record: "UCCUCCUACAGCUUGCAAAGAAUUUAGUUA"
  study.system: "EfPiwi piRISC loaded with L1MC piRNA (26 nt)"
  pre-steady-state target cleavage rate: 0.0033
- sequence.record: "UCCUGGAUGUCCUUGCAUAGUGUUUAGUUA"
  study.system: "EfPiwi piRISC loaded with L1MC piRNA (26 nt)"
  pre-steady-state target cleavage rate: 0.00951
- sequence.record: "UCCUGGUACAGCUUGGAUAGUAAUUAGUUA"
  study.system: "EfPiwi piRISC loaded with L1MC piRNA (26 nt)"
  pre-steady-state target cleavage rate: 0.00316
- sequence.record: "UCCUGCUACAGCUUGGAUAGUUUUUAGUUA"
  study.system: "EfPiwi piRISC loaded with L1MC piRNA (26 nt)"
  pre-steady-state target cleavage rate: 0.0172
- sequence.record: "UCCUGGAUCAGCUUGCAUAGUAUUUGGUUA"
  study.system: "EfPiwi piRISC loaded with L1MC piRNA (26 nt)"
  pre-steady-state target cleavage rate: 0.00498

Working through the 6 sequences below one at a time, give pre-steady-state target cleavage rate for each.
1. UCCUGGAACAGCUUGCAUAGUAUUUACGUUA
2. UCCUCCUACAGCUUGCAUAGUAUAAACAAA
3. UCCUGGAUGAGCUAGCAUAGUAUUUAGUUA
4. UCCUGGAUGUCCCUUGCAUAGUAUUUAGUUA
5. UCCUGGAACGAGCUUGCAUAGUAUUUAGUUA
6. UCCUGCUUCACCUUGCAUAGUAUUUAGUUA

Resp:
0.00579
0.00398
0.00597
0.00608
0.00926
0.0076

Req: Name the recorded pre-steady-state target cleavage rate for UCCUCCUACCGCUUGCAUAGUAUUUAGUUA .
Resp: 0.0865

Ref: the supplement of paper PMC10338343
